Protocol Description: Fluorescence spectra at a final concentration of 30 μM (Example 2)
Type: physicochemical
Reported Conditions: phosphate buffer pH 7.4, 30 μM, excited at 330 nm
Protocol: The fluorescence quantum yield of each CTMD analog synthesized was determined by the following procedure. The fluorescence spectrum was measured at 25° C. using a spectrofluorometer FP-6500 of JASCO (JASCO Corp., Tokyo). […] The average was taken as the fluorescence spectrum of the compound. The fluorescence quantum yield was determined after the spectrum was corrected. […]
This section presents compounds with their documented λmax (PB)/nm values.
I only need the number, in nm, no unit after it.

Oc1ccc(-c2cnc(NC(=S)Cc3ccccc3)c(Cc3ccccc3)n2)cc1	435.5
O=C(Cc1ccc(O)cc1)Nc1ncc(-c2ccc(O)cc2)nc1Cc1ccccc1 [c-4, reference compound]	444.5
CC(=O)Nc1ncc(-c2ccc(O)cc2)nc1Cc1ccccc1	446.0

Recorded λmax (PB)/nm of `O=[N+]([O-])c1ccc(S(=O)(=O)Nc2ncc(-c3ccc(O)cc3)nc2Cc2ccccc2)cc1` , please. 433.5

Recorded λmax (PB)/nm of `CC(=O)Oc1ccc(-c2cnc(NC(=S)Cc3ccccc3)c(Cc3ccccc3)n2)cc1` , please. 413.5

* * *

This section presents molecules with their documented λmax (MeOH)/nm values.
Protocol Description: Fluorescence spectrum and fluorescence quantum yield of CTMD analogs at 750 nM (Example 1)
Assay type: physicochemical
Reported Conditions: fluorescence emission, methanol, 750 nM, 25° C., excited at 330 nm
I only need the number, in nm, no unit after it.

Example entries and their recorded answers appear below.
O=S(=O)(Cc1ccccc1)Nc1ncc(-c2ccccc2)nc1Cc1ccccc1	402.5
CC(=O)Oc1ccc(-c2cnc(N(S(=O)(=O)c3ccc([N+](=O)[O-])cc3)S(=O)(=O)c3ccc([N+](=O)[O-])cc3)c(Cc3ccccc3)n2)cc1	407.5
CC(=O)Oc1ccc(CC(=O)Nc2ncc(-c3ccc(OC(C)=O)cc3)nc2Cc2ccccc2)cc1	376.5

Okay, next one:
Recorded λmax (MeOH)/nm of `O=S(=O)(Cc1ccccc1)N(c1ncc(-c2ccccc2)nc1Cc1ccccc1)S(=O)(=O)Cc1ccccc1` , please. 398.5

* * *

Protocol Description: Fluorescence spectrum and fluorescence quantum yield of CTMD analogs at 750 nM (Example 1)
Type: physicochemical
Reported Conditions: methanol, 750 nM, 25° C., excited at 330 nm, relative to quinine sulfate 0.55
Reported Property: Fluorescence quantum yield (MeOH)
// keep it numeric: no unit symbol after the value

Example entries and their recorded answers appear below.
O=S(=O)(Cc1ccccc1)Nc1ncc(-c2ccc(O)cc2)nc1Cc1ccccc1	0.066
O=C(Cc1ccc(O)cc1)Nc1ncc(-c2ccc(O)cc2)nc1Cc1ccccc1 [c-4, reference compound]	0.012
O=S(=O)(Cc1ccccc1)N(c1ncc(-c2ccccc2)nc1Cc1ccccc1)S(=O)(=O)Cc1ccccc1	0.180
COc1ccc(-c2cnc(NS(=O)(=O)Cc3ccccc3)c(Cc3ccccc3)n2)cc1	0.293
CC(=O)Nc1ncc(-c2ccc(OC(C)=O)cc2)nc1Cc1ccccc1	0.085

Recorded Fluorescence quantum yield (MeOH) of `CC(=O)Oc1ccc(-c2cnc(N(S(=O)(=O)Cc3ccccc3)S(=O)(=O)Cc3ccccc3)c(Cc3ccccc3)n2)cc1` , please. 0.185

Recorded Fluorescence quantum yield (MeOH) of `CC(=O)Nc1ncc(-c2ccc(O)cc2)nc1Cc1ccccc1` , please. 0.009
